These measurements were taken from PubChem BioAssay AID2060512.

- Tested on: 186277-243-T-J2-PDC complex spheroid viability
- Protocol text: Anticancer human tumor 186277-243-T-J2-PDC patient-derived colon adenocarcinoma cell line growth inhibition [GQUAD]
- Recorded conditions: curve of first compound; second compound 1 µM
- Source text: DNA G-quadruplex Stabilizer Agents in Combinations in Complex Spheroids A high-throughput screen of multi-cell type tumor spheroids was designed to identify active combinations of DNA G-quadruplex stabilizer agents and targeted small molecules. […] Compounds. […] If the clinical Cmax for an agent had not been determined, the highest concentration tested was 10 microM. […]
The threshold is 1000 nM. Values of IC50 beneath it are tagged t; values meeting or exceeding it are tagged f.

CC1COCCN1c1cc(C2(S(C)(=N)=O)CC2)nc(-c2ccnc3[nH]ccc23)n1 (stereo not given) + Cc1[nH]c2ccc(F)cc2c1-c1nc2c3cccnc3c3ncccc3c2[nH]1 | f
COc1cccc2c1C(=O)c1c(O)c3c(c(O)c1C2=O)CC(O)(C(=O)CO)CC3OC1CC(N)C(O)C(C)O1 (stereo not given) + Cc1[nH]c2ccc(F)cc2c1-c1nc2c3cccnc3c3ncccc3c2[nH]1 | t
CC(=O)O[C@H]1C(=O)[C@@]2(C)[C@H]([C@H](OC(=O)c3ccccc3)[C@]3(O)C[C@H](OC(=O)[C@H](O)[C@@H](NC(=O)c4ccccc4)c4ccccc4)C(C)=C1C3(C)C)[C@]1(OC(C)=O)CO[C@@H]1C[C@@H]2O + Cc1[nH]c2ccc(F)cc2c1-c1nc2c3cccnc3c3ncccc3c2[nH]1 | t
C=CCn1c(=O)c2cnc(Nc3ccc(N4CCN(C)CC4)cc3)nc2n1-c1cccc(C(C)(C)O)n1 + Cc1cnc(CNC(=O)c2c(=O)c3ccc(N4CCCN(C)CC4)nc3n3c2sc2ccccc23)cn1 | t
CC1COCCN1c1cc(-c2ccnn2C)c2ccnc(-c3ccn[nH]3)c2n1 (stereo not given) + Cc1cnc(CNC(=O)c2c(=O)c3ccc(N4CCCN(C)CC4)nc3n3c2sc2ccccc23)cn1 | t
CCCS(=O)(=O)Nc1ccc(F)c(C(=O)c2c[nH]c3ncc(-c4ccc(Cl)cc4)cc23)c1F + Cc1[nH]c2ccc(F)cc2c1-c1nc2c3cccnc3c3ncccc3c2[nH]1 | f
O=C(c1cc(Cc2n[nH]c(=O)c3ccccc23)ccc1F)N1CCN(C(=O)C2CC2)CC1 + CN(C)c1ccc(Nc2c3ccc(NC(=O)CCN4CCCC4)cc3nc3cc(NC(=O)CCN4CCCC4)ccc23)cc1 | f
C=CC(=O)N1CCN(c2nc(=O)n(-c3c(C)ccnc3C(C)C)c3nc(-c4c(O)cccc4F)c(F)cc23)C(C)C1 (stereo not given) + CN(C)c1ccc(Nc2c3ccc(NC(=O)CCN4CCCC4)cc3nc3cc(NC(=O)CCN4CCCC4)ccc23)cc1 | f

As a next step, examine the compound that follows.
(Q) Is 1000 nM strictly greater than the compound's reported IC50? compound: C=CCn1c(=O)c2cnc(Nc3ccc(N4CCN(C)CC4)cc3)nc2n1-c1cccc(C(C)(C)O)n1 + Cc1[nH]c2ccc(F)cc2c1-c1nc2c3cccnc3c3ncccc3c2[nH]1
(A) t

----------
- System: 186277-243-T-J2-PDC complex spheroid viability
- Protocol text: Anticancer human tumor 186277-243-T-J2-PDC cell line growth inhibition [GQUAD];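 also: spheroids exposed to drugs for 7 days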;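 as to viability, T/C: 100% = DMSO vehicle control viability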
- Recorded conditions: second compound 0.1 µM; first compound 0.0999 µM; stronger effect = lower value
The threshold is 70%. Values of viability, T/C beneath it are tagged T; values meeting or exceeding it are tagged F.

Previously resolved entries follow.
CC[C@@]1(O)C(=O)OCc2c1cc1n(c2=O)Cc2cc3c(CN(C)C)c(O)ccc3nc2-1 + Cc1cnc(CNC(=O)c2c(=O)c3ccc(N4CCCN(C)CC4)nc3n3c2sc2ccccc23)cn1 | T
Cc1[nH]c2ccccc2c1CCNCc1ccc(/C=C/C(=O)NO)cc1 + Cc1[nH]c2ccc(F)cc2c1-c1nc2c3cccnc3c3ncccc3c2[nH]1 | T
CC[C@@]1(O)C(=O)OCc2c1cc1n(c2=O)Cc2cc3c(CN(C)C)c(O)ccc3nc2-1 + Cc1[nH]c2ccc(F)cc2c1-c1nc2c3cccnc3c3ncccc3c2[nH]1 | F
Cn1ncnc1[C@H]1c2n[nH]c(=O)c3cc(F)cc(c23)N[C@@H]1c1ccc(F)cc1 + CN(C)c1ccc(Nc2c3ccc(NC(=O)CCN4CCCC4)cc3nc3cc(NC(=O)CCN4CCCC4)ccc23)cc1 | F
CCc1c2c(nc3ccc(O)cc13)-c1cc3c(c(=O)n1C2)COC(=O)[C@]3(O)CC + Cc1[nH]c2ccc(F)cc2c1-c1nc2c3cccnc3c3ncccc3c2[nH]1 | T

(Q) Is 70% strictly greater than the molecule's reported viability, T/C? molecule: CC[C@@]1(O)C(=O)OCc2c1cc1n(c2=O)Cc2cc3c(CN(C)C)c(O)ccc3nc2-1 + CN(C)c1ccc(Nc2c3ccc(NC(=O)CCN4CCCC4)cc3nc3cc(NC(=O)CCN4CCCC4)ccc23)cc1
(A) T

(Q) How about this molecule: Cn1ncnc1[C@H]1c2n[nH]c(=O)c3cc(F)cc(c23)N[C@@H]1c1ccc(F)cc1 + Cc1[nH]c2ccc(F)cc2c1-c1nc2c3cccnc3c3ncccc3c2[nH]1
(A) F

----------
Reported viability, T/C values are given for each entry in this list.
- Tested on: 186277-243-T-J2-PDC complex spheroid viability
- Protocol text: Anticancer human tumor 186277-243-T-J2-PDC cell line growth inhibition [GQUAD];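 also: spheroids exposed to drugs for 7 days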;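 as to viability, T/C: 100% = DMSO vehicle control viability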
- Recorded conditions: second compound 0.0316 µM; first compound 0.000999 µM; stronger effect = lower value

Sample answers from the record:
CCc1c2c(nc3ccc(O)cc13)-c1cc3c(c(=O)n1C2)COC(=O)[C@]3(O)CC + Cc1[nH]c2ccc(F)cc2c1-c1nc2c3cccnc3c3ncccc3c2[nH]1 | 99.6%
Cn1ncnc1[C@H]1c2n[nH]c(=O)c3cc(F)cc(c23)N[C@@H]1c1ccc(F)cc1 + Cc1cnc(CNC(=O)c2c(=O)c3ccc(N4CCCN(C)CC4)nc3n3c2sc2ccccc23)cn1 | 107%
Cc1[nH]c2ccccc2c1CCNCc1ccc(/C=C/C(=O)NO)cc1 + CN(C)c1ccc(Nc2c3ccc(NC(=O)CCN4CCCC4)cc3nc3cc(NC(=O)CCN4CCCC4)ccc23)cc1 | 99.5%
Cc1[nH]c2ccccc2c1CCNCc1ccc(/C=C/C(=O)NO)cc1 + Cc1[nH]c2ccc(F)cc2c1-c1nc2c3cccnc3c3ncccc3c2[nH]1 | 110%

(Q) What reported viability, T/C corresponds to Cn1ncnc1[C@H]1c2n[nH]c(=O)c3cc(F)cc(c23)N[C@@H]1c1ccc(F)cc1 + Cc1[nH]c2ccc(F)cc2c1-c1nc2c3cccnc3c3ncccc3c2[nH]1 on 186277-243-T-J2-PDC complex spheroid viability?
(A) 112%

(Q) How about this molecule: CCc1c2c(nc3ccc(O)cc13)-c1cc3c(c(=O)n1C2)COC(=O)[C@]3(O)CC + CN(C)c1ccc(Nc2c3ccc(NC(=O)CCN4CCCC4)cc3nc3cc(NC(=O)CCN4CCCC4)ccc23)cc1
(A) 97.1%

----------
- Tested on: 186277-243-T-J2-PDC complex spheroid viability
- Protocol text: Anticancer human tumor 186277-243-T-J2-PDC cell line growth inhibition [GQUAD];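 also: spheroids exposed to drugs for 7 days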;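 as to viability, T/C: 100% = DMSO vehicle control viability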
- Recorded conditions: second compound 0.1 µM; first compound 0.1 µM; stronger effect = lower value
Property: viability, T/C (%)
Value expressed in %; do not type the unit.

CC1COCCN1c1cc(C2(O)CC3CCC(C2)O3)c2cnn(-c3ccn[nH]3)c2n1 (stereo unspecified) + CN(C)c1ccc(Nc2c3ccc(NC(=O)CCN4CCCC4)cc3nc3cc(NC(=O)CCN4CCCC4)ccc23)cc1 | 12
Nc1ccn(C2OC(CO)C(O)C2(F)F)c(=O)n1 (stereo unspecified) + Cc1[nH]c2ccc(F)cc2c1-c1nc2c3cccnc3c3ncccc3c2[nH]1 | 11.5
CC1COCCN1c1cc(C2(O)CC3CCC(C2)O3)c2cnn(-c3ccn[nH]3)c2n1 (stereo unspecified) + Cc1[nH]c2ccc(F)cc2c1-c1nc2c3cccnc3c3ncccc3c2[nH]1 | 10.2
COc1cc(C2c3cc4c(cc3C(OC3OC5COC(C)OC5C(O)C3O)C3COC(=O)C23)OCO4)cc(OC)c1O (stereo unspecified) + Cc1[nH]c2ccc(F)cc2c1-c1nc2c3cccnc3c3ncccc3c2[nH]1 | 92.4
COc1cccc2c1C(=O)c1c(O)c3c(c(O)c1C2=O)CC(O)(C(=O)CO)CC3OC1CC(N)C(O)C(C)O1 (stereo unspecified) + Cc1cnc(CNC(=O)c2c(=O)c3ccc(N4CCCN(C)CC4)nc3n3c2sc2ccccc23)cn1 | 78.3
CC1COCCN1c1cc(C2(O)CC3CCC(C2)O3)c2cnn(-c3ccn[nH]3)c2n1 (stereo unspecified) + Cc1cnc(CNC(=O)c2c(=O)c3ccc(N4CCCN(C)CC4)nc3n3c2sc2ccccc23)cn1 | 16.4
CC(C)n1c(=O)n(C)c2cnc3cc(F)c(-c4ccc(OCCCN5CCCCC5)nc4)cc3c21 + Cc1[nH]c2ccc(F)cc2c1-c1nc2c3cccnc3c3ncccc3c2[nH]1 | 91.4
COc1cccc2c1C(=O)c1c(O)c3c(c(O)c1C2=O)CC(O)(C(=O)CO)CC3OC1CC(N)C(O)C(C)O1 (stereo unspecified) + CN(C)c1ccc(Nc2c3ccc(NC(=O)CCN4CCCC4)cc3nc3cc(NC(=O)CCN4CCCC4)ccc23)cc1 | 93.8

(Q) Find the recorded viability, T/C belonging to CC1COCCN1c1cc(-c2ccnn2C)c2ccnc(-c3ccn[nH]3)c2n1 (stereo unspecified) + Cc1cnc(CNC(=O)c2c(=O)c3ccc(N4CCCN(C)CC4)nc3n3c2sc2ccccc23)cn1 and report it.
(A) 22.2

(Q) How about this compound: O=C(NO)c1cnc(N2CCN(S(=O)(=O)c3ccc4ccccc4c3)CC2)nc1 + Cc1cnc(CNC(=O)c2c(=O)c3ccc(N4CCCN(C)CC4)nc3n3c2sc2ccccc23)cn1
(A) 50.9

(Q) How about this compound: CC1COCCN1c1cc(C2(S(C)(=N)=O)CC2)nc(-c2ccnc3[nH]ccc23)n1 (stereo unspecified) + Cc1[nH]c2ccc(F)cc2c1-c1nc2c3cccnc3c3ncccc3c2[nH]1
(A) 88.3
